Molecular target: CYP2C8 (Homo sapiens)
Sequence (P10632 1-490): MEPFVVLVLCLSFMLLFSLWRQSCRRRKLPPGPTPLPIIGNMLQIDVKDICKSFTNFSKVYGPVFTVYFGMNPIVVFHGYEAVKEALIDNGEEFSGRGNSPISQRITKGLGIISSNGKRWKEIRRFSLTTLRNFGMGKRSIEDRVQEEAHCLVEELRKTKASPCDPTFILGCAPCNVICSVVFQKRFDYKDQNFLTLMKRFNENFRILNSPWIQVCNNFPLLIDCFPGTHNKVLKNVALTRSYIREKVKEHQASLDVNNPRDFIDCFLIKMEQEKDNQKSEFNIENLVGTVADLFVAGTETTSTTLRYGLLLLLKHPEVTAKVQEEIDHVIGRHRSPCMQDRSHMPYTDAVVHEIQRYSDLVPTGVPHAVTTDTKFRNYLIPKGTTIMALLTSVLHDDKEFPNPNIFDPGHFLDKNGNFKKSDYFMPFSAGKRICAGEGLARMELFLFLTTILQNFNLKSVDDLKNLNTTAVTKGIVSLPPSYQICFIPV
Test: in vitro
Details: CYP2C8 enzyme, pH 7.4, probe DBOMF (0.001 mM)
EXPERIMENTAL_READOUT: inhibition at 30 min, 10 µM
Include the unit right after the number.

Please report the measured inhibition at 30 min, 10 µM for C=CCn1c(=O)c2cnc(Nc3ccc(N4CCN(C)CC4)cc3)nc2n1-c1cccc(C(C)(C)O)n1 17.3%
